# Test system: A375 cells (malignant melanoma)
# Protocol text: Inhibition of cancer cell proliferation, A375 (CellTiterGlo, 72 hours)
# Assay type: cell-based
# Condition parameters: Homo sapiens, A-375
Can you tell me GI50 for the items I'm about to list?

If you can, please state the reported GI50 value of `C=CC(=O)Nc1cc(C)ccc1Nc1nc(Nc2cc(N[C@H]3CC[C@@H](O)CC3)nc(OC)c2)ncc1C(F)(F)F` .
< 100 nM

If you can, please state the reported GI50 value of `C=CC(=O)Nc1ccccc1Nc1nc(Nc2cc(OC)ncc2C)ncc1C(F)(F)F` .
< 100 nM

If you can, please state the reported GI50 value of `C=CC(=O)Nc1cc(C)ccc1Nc1nc(Nc2ncc(C(F)(F)F)c(OC)n2)ncc1C(F)(F)F` .
501 to 999 nM

If you can, please state the reported GI50 value of `C=CC(=O)Nc1ccccc1Nc1nc(Nc2cc(C(=O)NOC)ccc2C)ncc1Cl` .
< 100 nM

If you can, please state the reported GI50 value of `C=CC(=O)Nc1ccccc1Nc1nc(Nc2cc(OC)ccc2C)ncc1C(F)(F)F` .
101 to 500 nM

If you can, please state the reported GI50 value of `C=CC(=O)Nc1ccccc1Nc1nc(N[C@H]2CCN(C(C)=O)C2)ncc1C(F)(F)F` .
101 to 500 nM

If you can, please state the reported GI50 value of `C=CC(=O)Nc1cc(C)ccc1Nc1nc(Nc2nc(OC)ncc2Cl)ncc1C(F)(F)F` .
101 to 500 nM

If you can, please state the reported GI50 value of `C=CC(=O)Nc1cc(C)ccc1Nc1nc(N[C@H]2CCCN(C(C)=O)C2)ncc1C(F)(F)F` .
< 100 nM

Cited source for all entries: patent US9561228B2
